protocol-text: Induction of huntingtin polyQ mutant degradation in human A 172 cells
Assay type: cell-based
pIC50: −log10 of the molar value.

substance: H-GIYVIWGPITERKKRRKG-NH2
pIC50: 7.24

###

tested-target: Nicotinamide phosphoribosyltransferase (Homo sapiens)
Sequence (P43490 whole entry): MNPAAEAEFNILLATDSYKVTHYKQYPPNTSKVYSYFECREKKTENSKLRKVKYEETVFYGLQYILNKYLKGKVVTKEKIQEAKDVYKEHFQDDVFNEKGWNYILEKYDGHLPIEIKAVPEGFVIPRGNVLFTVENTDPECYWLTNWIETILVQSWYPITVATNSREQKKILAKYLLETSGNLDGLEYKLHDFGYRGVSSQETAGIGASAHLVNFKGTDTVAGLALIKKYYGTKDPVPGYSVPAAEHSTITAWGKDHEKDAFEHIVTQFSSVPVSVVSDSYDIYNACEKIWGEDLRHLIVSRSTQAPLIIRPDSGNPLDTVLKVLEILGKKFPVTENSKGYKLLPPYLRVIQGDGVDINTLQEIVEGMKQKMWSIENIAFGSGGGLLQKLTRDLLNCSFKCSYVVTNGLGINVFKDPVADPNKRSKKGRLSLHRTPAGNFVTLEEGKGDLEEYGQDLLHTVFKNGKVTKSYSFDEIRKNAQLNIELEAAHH
protocol-text: Induction of NAMPT degradation in human A2780 cells
pIC50: −log10 of the molar value.
assay-metric: pIC50

structure-smiles-string: Cc1ccc(C(=O)N(CCCNC(=O)CCCCCCCCN2CCN(S(=O)(=O)c3ccc(NC(=S)NCc4cccnc4)cc3)CC2)[C@@H](c2nc3cc(Cl)ccc3c(=O)n2Cc2ccccc2)C(C)C)cc1
assay-value: 7.40
